# reported GI50; entries follow
Test system: UACC-257 melanoma
Assay: NCI tumour cell line growth inhibition, 48 h

Solved entries (count: 10):
compound	GI50
CN(C)c1ccc(/C=c2\sc3nnc(Cc4ccccc4)n3c2=O)cc1	> 100 µM
CN1CCN(Cc2ccc(NC(=O)c3cncc(C#Cc4ncc5ccccn45)c3)cc2C(F)(F)F)CC1	1.44 µM
O=C1CC2OCC=C3CN4CCC56c7ccccc7N1C5C2C3CC46 (centres undefined) (tested in a mixture with another compound)	> 50 µg/mL
CC(=O)Oc1ccc2c3c1[C@@H]1O[C@@H]1c1cccc(c1-3)[C@@H]1O[C@H]21	2.75 µM
CCN1C(=O)N(CC)C2C1NN=c1s/c(=C\c3cnc(C)n3C)c(=O)n12 (centres undefined)	4.69 µM
COC(=O)[C@]1(C)CC[C@]2(C)CC[C@]3(C)C(=CC(=O)[C@@H]4[C@@]5(C)CCC(=O)NC(C)(C)[C@@H]5CC[C@]43C)[C@@H]2C1	24.4 µM
COc1ccc(-c2cc3c(N)ncnc3o2)cc1	> 25 µM
COc1ccc2c(c1)C(=O)c1c-2n(CCCNCCO)c(=O)c2cc([N+](=O)[O-])ccc12	0.0691 µM
O=C1C=C(OCC=C(Cl)Cl)C(=O)c2ccccc21	2.15 µM
Nc1cc(N)c2nc(-c3ccccc3)c(Oc3ccc(Cl)c(Cl)c3)nc2c1	28.5 µM

Q. I am curious: what GI50 value has been reported for COc1cc2c3c(n(CCCN4CCN(CCO)CC4)c(=O)c2cc1OC)-c1cc2c(cc1C3=O)OCO2 ?
A. 30.6 µM

Q. What about CCC(=O)OCN1C(=O)C=CC1=O ?
A. 15.7 µM

Q. What about CC1CC2(C)CC(=O)C1C1C(=O)N(CCN3CCOCC3)C(=O)C12 (centres undefined) ?
A. > 100 µM

Q. What about CCC(=O)Oc1ccc(/C=N/NC(N)=S)nc1 ?
A. 21.5 µM

# credit: PubChem BioAssay (NCI)
